TARGET: mouse TAAR1 (Mus musculus)
Construct: expressed in transfected cells; host or cells: HEK293 (ATCC # CRL-1573), stably transfected with pIRESneo2 expression plasmid
Sequence (Q923Y8 whole entry): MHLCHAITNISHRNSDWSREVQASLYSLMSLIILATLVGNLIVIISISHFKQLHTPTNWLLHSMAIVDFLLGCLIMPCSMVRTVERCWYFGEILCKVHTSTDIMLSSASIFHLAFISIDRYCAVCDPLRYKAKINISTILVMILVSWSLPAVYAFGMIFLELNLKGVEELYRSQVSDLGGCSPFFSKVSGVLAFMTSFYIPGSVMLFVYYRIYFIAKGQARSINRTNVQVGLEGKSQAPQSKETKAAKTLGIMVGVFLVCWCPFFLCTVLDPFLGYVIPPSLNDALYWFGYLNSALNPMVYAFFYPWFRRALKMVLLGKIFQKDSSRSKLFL
METHOD DESCRIPTION: TAAR1 radioligand binding with [3H]-rac-2-(1,2,3,4-tetrahydro-1-naphthyl)-2-imidazoline, membranes of stably transfected HEK293 cells
MEASUREMENT CONDITIONS: first value of the cell, read-out: Ki (μM) mouse/rat: mouse

SMILES INPUT | Ki, µM
CCOc1ccc(C(=O)Nc2ccc(CC[C@H]3COC(N)=N3)cc2)nc1 | 0.0009
NC1=N[C@@H](CCc2ccc(NC(=O)c3ccc(OCC(F)(F)F)nc3)cc2)CO1 | 0.0006
NC1=N[C@@H](CCc2ccc(NC(=O)c3cnc(Cl)cn3)cc2)CO1 | 0.0007
CC[C@@H](C[C@H]1COC(N)=N1)c1ccc(NC(=O)Nc2ccc(C(F)(F)F)cc2)cc1 | 0.0007
